experimentDescription: qHTS for Stage-Specific Inhibitors of Vaccinia Orthopoxvirus: mCherry Reporter Primary qHTS; also: nearly all actives have a fitted effect of over 35% in size
measurementContext: Vaccinia virus mCherry reporter infection, fluorescence; series mostly up to 36.5 µM
Out of some 310,000 compounds screened, about 1,900 (0.61%) were called active. About 8% were inconclusive and are not listed. Calls follow the shape of the full dose curve; tested in A549 cells. The full list was thinned out, with actives kept by preference.
Hi! Could you answer with just one of these? y = active, n = inactive

Completed entries (count: 4):
compound | classLabel
Cc1ccccc1-c1ccc(Nc2ccc(C(=O)N3CCOCC3)cc2)nn1 | n
COC(=O)[C@]12CCCCC=C1N(CCC1=CCCCC1)C(=O)[C@H](CC(=O)N1CCSCC1)C2 | n
O=C(OCc1ccccc1)N1CCC2CC1c1cc(N3CCN(S(=O)(=O)c4cc(Cl)cc(Cl)c4)CC3)ccc12 (centres undefined) | n
Oc1ccc(N=Nc2nccs2)c(O)c1 | y

Outcome logged for `c1cncc(CNCCc2c[nH]c3ccccc23)c1` in this assay:
n

Outcome logged for `CCN1CCN(c2ccc(/C=C/c3ccnc4ccccc34)cc2)CC1` in this assay:
n
